The measurements presented in this section are drawn from patent US20190000964A1.

test-system: T1, human CCR5 receptor (hCCR5) (human, UniProt P51681 1-352)
T1 construct: whole, on cells; also called synCCR5; chemokine co-receptor CCR5
T1 sequence (P51681 whole entry): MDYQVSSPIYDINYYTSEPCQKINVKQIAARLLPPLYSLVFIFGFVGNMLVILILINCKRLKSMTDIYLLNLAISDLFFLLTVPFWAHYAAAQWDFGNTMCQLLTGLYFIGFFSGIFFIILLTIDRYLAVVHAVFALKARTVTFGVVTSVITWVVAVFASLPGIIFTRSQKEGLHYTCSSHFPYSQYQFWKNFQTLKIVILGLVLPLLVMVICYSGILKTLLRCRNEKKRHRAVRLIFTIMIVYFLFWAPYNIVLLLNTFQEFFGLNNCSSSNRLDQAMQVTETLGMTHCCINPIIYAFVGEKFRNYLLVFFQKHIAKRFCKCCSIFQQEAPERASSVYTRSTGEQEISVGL
test-protocol: inhibition of gp120BaL/sCD4 binding to Cf2Th/synR5 cells (FIG. 4A)
result-type: IC50
Give me the value, and tack the unit on after it.

Field request: IC50 | item: MIP-1β (ligand, also called MIP-β) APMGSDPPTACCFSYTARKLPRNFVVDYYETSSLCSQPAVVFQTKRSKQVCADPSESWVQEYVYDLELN
1.5 nM
